The values you see were collected from the RNAGym collection of RNA variant scans (doi:10.7554/elife.80360).

B1: HDV Ribozyme (parent)
chain: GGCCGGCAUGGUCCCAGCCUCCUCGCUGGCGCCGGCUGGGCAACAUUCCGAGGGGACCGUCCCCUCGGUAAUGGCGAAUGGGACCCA

Variants of: B1
Assay: self-cleavage, relative activity (ratio to wild type); higher = more cleavage; co-transcriptional
Recorded self-cleavage, one value per entry.
OUTCOME_MEASURE: self-cleavage

>>> data_value("CGCCGGCAUGGUCCCAGCCUCCUCGCUGGCGCCGGCUGGGCAACCUUCCGAGGGGACCGUCCCCUCGGUAAUGGCGAAUGGGACCCA")
0.145
>>> data_value("GGCCGGCAUGGUCCCAGCCUCCGCGCUGGCGCCGGCUGGGCAACAUUCCGAGGGCACCGUCCCCUCGGUAAUGGCGAAUGGGACCCA")
0.748
>>> data_value("GGCCGGCAUGGUCCCAGCCUCCUCGCUGGCGCCGGCUGGGCAAUAUUCCGAGGGUACCGUCCCCUCGGUAAUGGCGAAUGGGACCCA")
0.831
>>> data_value("GGCCAGCAUGGUCCCAGCCUCCUCGCUGGCGCCGGCUGGGCAACAUUCCGAGGGGACCGUCCCCUCGGUUAUGGCGAAUGGGACCCA")
0.19
>>> data_value("GGCCGGCAUGGUCCUAGCCUCCUCGCUGGCGCCGGCUGGGCAACAUUCCGAGGGGACCGUCCCCUCGGUAAUGGCGAACGGGACCCA")
0.849
>>> data_value("GGCCGGCAUGGUCCCAGCCUCGUCGCUGGCGCCGGCUGGGCAACAUUCCGAGGGGACCGUCCCCUCGGUCAUGGCGAAUGGGACCCA")
0.0489
>>> data_value("GGCCGGCAUGGUCCCAGCCUCCUCGCUGGCGACGGCUGGGCAACAUUCCGAGGGGACCGUCCCCUCGGUAAUGGCGAAUGGGACCCG")
0.165
>>> data_value("GGCCGGCAUGGUCCCAGCCUCCUCGCUGGCGCCGGCUGGGCAACAUUCCGAGGGGACCGGCCCCUCGGUAAUGGCGACUGGGACCCA")
0.151
>>> data_value("GGCCGGAAUGGUCCCAGCCUCCUCGCUGGCGCCGGCUGGGCAACAUUCCGAGGGGACCGUCCCCUCGGUAAUGUCGAAUGGGACCCA")
0.201
>>> data_value("GGCCGGCAUGGUCCCAGCCUCCUCGCUGGCGCCGGCUGGGCAACAUUCCGAGGGGACCGUCCCCUCGAUAAUGGCGAAUGGGACCCA")
0.952
>>> data_value("GACCGGCAUGGUCCCAGCCUCCUCGCUGGCGCCGGCUGGGCAACAUUCCGAGGGGACCGACCCCUCGGUAAUGGCGAAUGGGACCCA")
0.208
>>> data_value("GGCCGGCAUGGUCCCAGCCUCCUCGCUGGCGCCGGCUGGGCAGCAUUCCGAGGGGACCGUCCCCUCGGUAAUGGCGAAUGGGAGCCA")
0.201
>>> data_value("GGCCGGCAUGGUCCCAGUCUCCUCGCUGGCGCCGGCUGGGCAACAUUCCGAGGGGACCGUCCCCUCGGUAAUGCCGAAUGGGACCCA")
0.0519
>>> data_value("GGCCGGCAUGGUCCCAGCCCCCUCGCUGGCGCCGGCAGGGCAACAUUCCGAGGGGACCGUCCCCUCGGUAAUGGCGAAUGGGACCCA")
0.107
>>> data_value("GGCCGGCAUGGUCCCAGCCUCCUCGCUGGCGCCGGCUGGGCAACAUUCCGAGGGGACCGUGCGCUCGGUAAUGGCGAAUGGGACCCA")
0.481
>>> data_value("GGCAGGCAUGGUCCCAGCCUCCUCGCUGGCGCCGGCUGGGCAUCAUUCCGAGGGGACCGUCCCCUCGGUAAUGGCGAAUGGGACCCA")
0.0707
